# System: C6 (Glioma cell)
# Assay procedure: In vitro cell proliferation assay
# Assay type: cell-based
# Stated conditions: C6 glioma, 48 h, highest concentration 100 μM, read-out: IC50 (anti-proliferative)
Experimental endpoint: pIC50
When answering, recall that pIC50 equals minus log10 of the concentration in mol/L, and write that number alone.

Value of measured pIC50 for the entry Nc1nn2c(nc(N)c3c(N)n[nH]c32)c1/N=N/c1ccccc1 : 4.96

----------
Reported values of IC50 for individual entries
# Study system: human recombinant mTOR kinase (Homo sapiens, UniProt P42345)
# Construct: a purified recombinant mTOR fragment (amino acids 1360-2549, CBA104-1KIT from Calbiochem)
# Sequence (P42345 1360-2549): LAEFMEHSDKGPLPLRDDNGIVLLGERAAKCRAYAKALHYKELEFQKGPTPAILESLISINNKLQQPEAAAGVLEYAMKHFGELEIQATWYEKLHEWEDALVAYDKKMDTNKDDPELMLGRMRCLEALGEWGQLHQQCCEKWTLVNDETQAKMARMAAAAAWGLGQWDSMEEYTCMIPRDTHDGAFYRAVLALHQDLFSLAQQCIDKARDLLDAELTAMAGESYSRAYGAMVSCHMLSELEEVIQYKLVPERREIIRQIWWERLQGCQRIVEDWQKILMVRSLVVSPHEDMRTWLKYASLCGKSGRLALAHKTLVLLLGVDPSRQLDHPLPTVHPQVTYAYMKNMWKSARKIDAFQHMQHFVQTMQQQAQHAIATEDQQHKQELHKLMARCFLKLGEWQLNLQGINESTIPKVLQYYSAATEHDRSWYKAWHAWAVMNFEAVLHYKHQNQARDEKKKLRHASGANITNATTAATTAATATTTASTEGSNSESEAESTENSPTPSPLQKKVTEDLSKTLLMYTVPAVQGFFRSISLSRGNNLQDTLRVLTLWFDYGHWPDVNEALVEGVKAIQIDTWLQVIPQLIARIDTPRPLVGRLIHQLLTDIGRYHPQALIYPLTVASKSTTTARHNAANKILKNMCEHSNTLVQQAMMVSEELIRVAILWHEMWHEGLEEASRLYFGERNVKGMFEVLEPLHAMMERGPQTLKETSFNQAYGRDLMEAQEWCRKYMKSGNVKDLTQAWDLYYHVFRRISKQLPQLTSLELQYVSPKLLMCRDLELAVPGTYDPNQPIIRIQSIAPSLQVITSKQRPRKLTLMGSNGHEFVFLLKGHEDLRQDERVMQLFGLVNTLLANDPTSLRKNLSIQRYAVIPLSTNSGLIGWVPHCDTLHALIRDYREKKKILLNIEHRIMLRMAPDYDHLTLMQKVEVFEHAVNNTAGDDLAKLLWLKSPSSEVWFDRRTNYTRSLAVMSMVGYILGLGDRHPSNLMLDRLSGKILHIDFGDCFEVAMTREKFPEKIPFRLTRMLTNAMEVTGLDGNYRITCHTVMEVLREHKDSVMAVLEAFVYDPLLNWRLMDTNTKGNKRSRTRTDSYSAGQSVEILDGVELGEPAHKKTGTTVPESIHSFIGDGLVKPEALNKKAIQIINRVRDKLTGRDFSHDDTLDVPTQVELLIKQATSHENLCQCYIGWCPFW
# Assay procedure: In vitro mTOR kinase assay (K-LISA ELISA, p70S6K-GST substrate)
# Stated conditions: mean ± SD of triplicate measurements

Solved entries:
Chemical structure | Value
O=C(NC(=S)Nc1ccc2oc(-c3cccnc3)nc2c1)c1ccco1 | > 50 µM
COC(=O)c1sc2nc(-c3ccccc3)nc(N3CCOCC3)c2c1C | > 50 µM

molecule O=[N+]([O-])c1c(Nc2ccc3c(c2)OCO3)cc(N2CCOCC2)c2nonc12 , IC50 observed: > 50 µM

# credit: paper PMC4702177
